molecular target: bradykinin B2 receptor (Cavia porcellus); construct: The guinea-pig ilea are roughly freed of the intestinal contents by careful stripping; from tissue; host or cells: guinea-pig ileum, membrane preparation; experiment: binding to the bradykinin B2 receptor of the guinea-pig ileum (3H-bradykinin competition); conditions: 3H-bradykinin 0.25 to 0.3 nmol/l, guinea-pig ileum membranes, LIGAND program
measure-name: pKi
Give bare numbers, as −log10 of the molar value.

As a guide, the following entries are already answered.
| structure-smiles | pKi |
| --- | --- |
| Cc1ccc2cccc(OCc3c(Cl)ccc(N(C)C(=O)CNC(=O)Cc4ccc(C(F)(F)F)cc4)c3Cl)c2n1 | 8.47 |
| Cc1ccc2cccc(OCc3c(Cl)ccc(N(C)C(=O)CNC(=O)/C=C/c4ccc(C(F)(F)F)cc4)c3Cl)c2n1 | 9.00 |

State the recorded pKi for this entry: Cc1ccc2c(C)ccc(OCc3c(Cl)ccc(N(C)C(=O)CNC(=O)/C=C/c4ccc(C(F)(F)F)cc4)c3Cl)c2n1
8.40

###

Biological target: bradykinin B2 receptor (Cavia porcellus)
Sequence (O70526 1-372): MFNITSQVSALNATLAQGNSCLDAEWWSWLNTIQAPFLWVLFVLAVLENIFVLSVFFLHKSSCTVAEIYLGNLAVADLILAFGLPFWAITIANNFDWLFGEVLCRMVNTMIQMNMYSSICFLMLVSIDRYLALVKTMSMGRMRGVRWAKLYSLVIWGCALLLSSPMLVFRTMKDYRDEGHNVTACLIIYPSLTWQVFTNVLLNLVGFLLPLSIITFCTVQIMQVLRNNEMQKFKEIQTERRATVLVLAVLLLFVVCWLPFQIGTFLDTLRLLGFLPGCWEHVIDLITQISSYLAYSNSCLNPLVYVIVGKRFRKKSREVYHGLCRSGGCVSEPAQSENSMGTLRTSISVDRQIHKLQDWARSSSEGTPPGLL
Would you mind telling me the reported pIC50 of each entry?
One number for each entry, as −log10 of the molar value.

| structure-smiles | measure-name | meas-value |
| --- | --- | --- |
| Cc1ccc2cccc(OCc3c(Cl)ccc(N(C)C(=O)CNC(=O)/C=C/c4ccc(C(F)(F)F)cc4)c3Cl)c2n1 | pIC50 | 8.05 |

# context switch: different molecule, same pIC50
Need pIC50 of Cc1ccc2c(C)ccc(OCc3c(Cl)ccc(N(C)C(=O)CNC(=O)/C=C/c4ccc(C(F)(F)F)cc4)c3Cl)c2n1 , thanks.
7.40

The origin of these recorded values is patent US5859025A.
